All figures here come from ChEMBL document CHEMBL1143336.

# procedure-details: Inhibition of thioredoxin-conjugated PolyQ-62 protein aggregation expressed in Escherichia coli DH5alpha
measured-attribute: IC50 (µM)

CC[C@H](C)[C@H](NC(=O)CNC(=O)[C@@H]1CCCN1C(=O)[C@H](Cc1c[nH]c2ccccc12)NC(=O)[C@H](Cc1c[nH]c2ccccc12)NC(=O)[C@H](CCCCN)NC(=O)[C@H](Cc1c[nH]c2ccccc12)NC(=O)[C@H](CC(N)=O)NC(=O)[C@H](CO)NC(C)=O)C(=O)N[C@@H](Cc1ccccc1)C(=O)N[C@H](CC(=O)O)C(N)=O : 5
CC[C@H](C)[C@H](NC(=O)CNC(=O)[C@@H]1CCCN1C(=O)[C@H](Cc1c[nH]c2ccccc12)NC(=O)[C@H](Cc1c[nH]c2ccccc12)NC(=O)[C@H](CCCCN)NC(=O)[C@H](Cc1c[nH]c2ccccc12)NC(=O)[C@H](CC(N)=O)NC(=O)[C@H](CO)NC(C)=O)C(=O)N[C@@H](Cc1ccccc1)C(=O)N[C@@H](CC(=O)O)C(N)=O : 5
CC[C@H](C)[C@H](NC(=O)CNC(=O)[C@@H]1CCCN1C(=O)[C@H](Cc1c[nH]c2ccccc12)NC(=O)[C@H](Cc1c[nH]c2ccccc12)NC(=O)[C@H](CCCCN)NC(=O)[C@H](Cc1c[nH]c2ccccc12)NC(=O)[C@@H](CC(N)=O)NC(=O)[C@H](CO)NC(C)=O)C(=O)N[C@@H](Cc1ccccc1)C(=O)N[C@@H](CC(=O)O)C(N)=O : 4.5
CC[C@H](C)[C@H](NC(=O)[C@H](C)NC(=O)[C@@H]1CCCN1C(=O)[C@H](Cc1c[nH]c2ccccc12)NC(=O)[C@H](Cc1c[nH]c2ccccc12)NC(=O)[C@H](CCCCN)NC(=O)[C@H](Cc1c[nH]c2ccccc12)NC(=O)[C@H](CC(N)=O)NC(=O)[C@H](CO)NC(C)=O)C(=O)N[C@@H](Cc1ccccc1)C(=O)N[C@@H](CC(=O)O)C(N)=O : 11.5
CC[C@H](C)[C@H](NC(=O)CNC(=O)[C@@H]1CCCN1C(=O)[C@H](Cc1c[nH]c2ccccc12)NC(=O)[C@H](Cc1c[nH]c2ccccc12)NC(=O)[C@H](CCCCN)NC(=O)[C@H](Cc1c[nH]c2ccccc12)NC(=O)[C@H](CC(N)=O)NC(=O)[C@@H](CO)NC(C)=O)C(=O)N[C@@H](Cc1ccccc1)C(=O)N[C@@H](CC(=O)O)C(N)=O : 4.4
